Where do the numbers come from? From patent US20030229053A1.

Measured pIC50, listed per entry.
- tested_target: HCV NS5B RNA-dependent RNA polymerase (Hepatitis C virus genotype 1b, UniProt P26663)
- Sequence (P26663 2420-3010 limits assumed): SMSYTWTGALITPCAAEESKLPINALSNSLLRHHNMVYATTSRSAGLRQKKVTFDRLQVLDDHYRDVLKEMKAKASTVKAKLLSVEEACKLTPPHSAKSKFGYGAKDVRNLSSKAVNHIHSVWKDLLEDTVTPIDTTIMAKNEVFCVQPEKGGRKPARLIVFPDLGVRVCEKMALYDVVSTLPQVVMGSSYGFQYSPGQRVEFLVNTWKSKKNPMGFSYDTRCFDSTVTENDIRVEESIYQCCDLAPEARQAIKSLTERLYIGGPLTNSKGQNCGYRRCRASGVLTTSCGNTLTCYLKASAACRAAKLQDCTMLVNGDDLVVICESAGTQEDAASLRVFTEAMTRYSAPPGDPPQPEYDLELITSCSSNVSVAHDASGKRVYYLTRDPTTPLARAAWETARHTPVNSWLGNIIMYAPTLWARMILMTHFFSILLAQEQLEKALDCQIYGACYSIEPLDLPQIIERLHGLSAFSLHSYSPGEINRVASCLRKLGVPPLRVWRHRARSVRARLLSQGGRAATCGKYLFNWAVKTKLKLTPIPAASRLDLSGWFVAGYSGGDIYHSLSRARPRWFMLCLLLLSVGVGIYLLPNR
- assay_overview: In vitro RNA-dependent RNA polymerase assay (Assay 1), polyA/oligo dT, TCA precipitation
- Assay type: biochemical
- test_settings: polyA/oligo dT template/primer, 200 ng NS5B, 2 h at 22° C.; read-out: RNA pol Assay 1 IC50 (μm)
pIC50: −log10 of the molar value.

stdin: So what does the record say about pIC50 for O=C(c1cccc(CN(C(=O)c2ccc(Cl)cc2Cl)[C@@H](Cc2ccccc2)C(=O)O)c1)c1ccc(Cl)cc1Cl [compound #44] ?
stdout: > 5.30

stdin: // lookup pIC50 for O=C(O)[C@H](Cc1ccccc1)N(Cc1cnc(N2CCN(Cc3ccccc3)CC2)s1)C(=O)c1ccc(Cl)cc1Cl [compound #102]
stdout: > 5.30

Now consider the entry below.
stdin: Query (molecule): O=C(O)[C@H](Cc1ccccc1)N(Cc1cc(-c2cc(F)cc(F)c2)cs1)C(=O)c1ccc(Cl)cc1Cl [compound #129] ; field requested: pIC50
stdout: > 5.30
